test system: P. falciparum Dd2 (PfLuc) line expressing firefly luciferase, asexual blood stage; experiment: microbe, parasite or virus in culture; assay type: cell-based, Plasmodium falciparum; details: Plasmodium falciparum, DD2, read-out: CDD P. falciparum Luciferase ABS 11-pt Reconfirmation Dose Response (48hr): IC50 (μM); 11-pt dose response, 48hr
Returns: string. Value is 1 if measured IC50 is below 2 µM, and 0 if it is greater than or equal to it.

COMPOUND: CC(C)[C@@H]1CN(C(=O)C2(c3ccccc3)CCN(C)CC2)C[C@H]1N(C)C
CAT: 0
--
COMPOUND: CCC[C@H]1CN(S(=O)(=O)c2ccc(-c3c(C)noc3C)s2)C[C@@H]1N
CAT: 0
--
COMPOUND: CC(C)(C)CNCC1(O)CCCN(Cc2ccccc2F)C1=O (stereo not drawn)
CAT: 0
--
COMPOUND: Cc1cc(C)c(N(CC(O)CNCc2ccccc2)S(C)(=O)=O)c(C)c1 (stereo not drawn)
CAT: 0
--
COMPOUND: CC1(C)CN(C(CNC2=NCCN2)c2ccc(Cl)cc2)CCO1 (stereo not drawn)
CAT: 1

Given the entry `c1ccc(Oc2nccc3occc23)c(CN2CCCCC2)c1` , would its reported IC50 be below 2 µM?
0

Given the entry `CCN(CC)Cc1ccccc1NC(=O)N(C)Cc1ccccc1O` , would its reported IC50 be below 2 µM?
0

Given the entry `CN[C@@H]1CCC[C@@H](Oc2ccccc2Oc2ccc(C)cc2)[C@@H]1O` , would its reported IC50 be below 2 µM?
1

* * *

test system: P. falciparum Dd2 (PfLuc) line expressing firefly luciferase, asexual blood stage; experiment: microbe, parasite or virus in culture; type: cell-based, Plasmodium falciparum; details: Plasmodium falciparum, DD2; 11-pt dose response, 48hr; read-out: P. falciparum Luciferase ABS 11-pt Reconfirmation Dose Response (48hr): Maximum inhibition (%)
OBSERVATION_TYPE: Emax (%)
Value expressed in %; do not type the unit.

Example entries begin here.
MOLECULE: CO[C@H]1CN(C(C)C)C[C@@H]1NC(=O)c1cc(-c2ccccc2O)n[nH]1
TEST_SYSTEM: P. falciparum Dd2 (PfLuc) line expressing firefly luciferase, asexual blood stage
UNITS_LABEL: %
Emax: 87.1
//
MOLECULE: c1ccc(C2CN(C3CC3)CC3(CCN(Cc4cscn4)CC3)C2)cc1 (centres unmarked)
TEST_SYSTEM: P. falciparum Dd2 (PfLuc) line expressing firefly luciferase, asexual blood stage
UNITS_LABEL: %
Emax: 85

Measured on P. falciparum Dd2 (PfLuc) line expressing firefly luciferase, asexual blood stage, `Cc1cc(NC(=O)NC2CCN(C(C)C)CC2)c2ncccc2c1` has a documented Emax of 47.1

Measured on P. falciparum Dd2 (PfLuc) line expressing firefly luciferase, asexual blood stage, CC(N)Cc1ccccc1Sc1ccccc1 (centres unmarked) has a documented Emax of 89.6

Measured on P. falciparum Dd2 (PfLuc) line expressing firefly luciferase, asexual blood stage, `OC1(c2ccc(F)cc2)CCN(Cc2ccccc2N2CCCC2)CC1` has a documented Emax of 76.5

Measured on P. falciparum Dd2 (PfLuc) line expressing firefly luciferase, asexual blood stage, `CS(=O)(=O)CCCNC1(c2cccc(Cl)c2)CCCC1` has a documented Emax of 68.8

Measured on P. falciparum Dd2 (PfLuc) line expressing firefly luciferase, asexual blood stage, `Clc1cccc(C[C@@H]2NCCC[C@@H]2Nc2ccccc2)c1` has a documented Emax of 99.1

Measured on P. falciparum Dd2 (PfLuc) line expressing firefly luciferase, asexual blood stage, `CC(C)(C)c1nccc(C2(c3ccccc3Cl)CCNCC2)n1` has a documented Emax of 91.9

Measured on P. falciparum Dd2 (PfLuc) line expressing firefly luciferase, asexual blood stage, COc1cc(CNCC(O)c2ccc(F)cc2F)cc2c1OCO2 (centres unmarked) has a documented Emax of 87.3

Measured on P. falciparum Dd2 (PfLuc) line expressing firefly luciferase, asexual blood stage, NC1CCCCN(Cc2cc(-c3ccccc3OC(F)(F)F)no2)C1 (centres unmarked) has a documented Emax of 84.8

Measured on P. falciparum Dd2 (PfLuc) line expressing firefly luciferase, asexual blood stage, `CCc1[nH]c2c(CNc3cc(C)nc(NC)n3)cc(C)cc2c1C` has a documented Emax of 38.8
